B1: SMARCE1 (parent)
chain: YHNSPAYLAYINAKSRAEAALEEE

Variants of: B1
assay-remarks: protein stability index of a GFP-peptide fusion (GPS, HEK-293T) (PSI 1-6); higher = more stable;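 note: lentivirally expressed fusions sorted by FACS into six bins by GFP to DsRed ratio, PSI derived from sequencing read proportions per bin multiplied by bin number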
conditions-used: c terminus: a fixed tail appended
Decision: protein stability index compared against 2; not below it gives yes, below it gives no.

{"mutant-id": "Y1P", "discrete-label": "yes"}
{"mutant-id": "E23V", "discrete-label": "yes"}
{"mutant-id": "Y10D", "discrete-label": "yes"}
{"mutant-id": "N3Y", "discrete-label": "yes"}

## Input Say whether "H2N" shows protein stability index of 2 or more.
## Output yes

## Input Say whether "E23Y" shows protein stability index of 2 or more.
## Output no

## Input Say whether "S15A" shows protein stability index of 2 or more.
## Output yes

## Input Say whether "K14G" shows protein stability index of 2 or more.
## Output yes

## Input Say whether "E22Y" shows protein stability index of 2 or more.
## Output no
